All figures here come from patent US20260207621A1.

target: KEAP1 C151 (Homo sapiens, UniProt Q14145); construct: treating 500 μg of cell lysate generated from MDA-MB-468 breast cancer cells with DMSO or compound; endogenous in cells; assay: Nrf2 TMT measurement: in vitro TE50 for KEAP1 C151 (IA-DTB competition, targeted TMT mass spectrometry) in MDA-MB-468 cell lysate; settings: in vitro target engagement of KEAP1 C151, targeted TMT, read-out: KEAP1_C151 TE50
Sequence (Q14145 whole entry): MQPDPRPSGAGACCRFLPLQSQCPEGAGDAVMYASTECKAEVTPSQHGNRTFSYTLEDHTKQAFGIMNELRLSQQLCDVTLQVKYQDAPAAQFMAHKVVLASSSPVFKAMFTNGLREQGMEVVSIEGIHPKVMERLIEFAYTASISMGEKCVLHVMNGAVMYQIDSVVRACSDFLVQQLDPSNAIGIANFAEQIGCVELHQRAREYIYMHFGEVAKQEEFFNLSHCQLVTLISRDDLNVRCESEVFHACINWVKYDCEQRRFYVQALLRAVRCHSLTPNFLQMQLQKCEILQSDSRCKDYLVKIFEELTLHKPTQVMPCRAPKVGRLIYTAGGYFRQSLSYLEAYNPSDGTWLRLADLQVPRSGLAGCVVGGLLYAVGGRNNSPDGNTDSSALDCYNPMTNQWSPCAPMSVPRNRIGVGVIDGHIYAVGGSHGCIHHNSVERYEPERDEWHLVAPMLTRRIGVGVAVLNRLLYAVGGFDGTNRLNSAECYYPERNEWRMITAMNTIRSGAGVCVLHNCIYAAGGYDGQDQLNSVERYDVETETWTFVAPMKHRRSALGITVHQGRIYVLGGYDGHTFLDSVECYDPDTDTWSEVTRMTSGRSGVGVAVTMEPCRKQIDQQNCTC
Could you mark each record criterion met if its IC50 falls strictly under 0.06 µM, and criterion not met if it equals or exceeds it?

Exercise: Determine if C=CC(=O)N1CCN(C(C)=O)C[C@H]1c1cc(Cl)cc(C2CCOCC2)c1 (single isomer, unassigned) [Compound 26] shows IC50 strictly lower than 0.06 µM.
Solution: criterion not met

Exercise: # TODO verify IC50 < 0.06 µM strictly for this compound: C=CC(=O)N1CCS(=O)(=O)CC1c1cc(Cl)cc(-c2ncccn2)c1 (single isomer, unassigned) [Compound 31]
Solution: criterion met

Exercise: Given the entry C=CC(=O)N1C[C@@H](C)N(C(C)=O)C[C@@H]1c1cc(Cl)cc(-c2ncc(N)cn2)c1 (single isomer, unassigned) [Compound 237] , would its reported IC50 be below 0.06 µM?
Solution: criterion not met

Further cases:
Exercise: In plain terms, does C=CC(=O)N1[C@H](c2cc(Cl)nc(-c3cc(C(N)=O)ncn3)c2)COC[C@H]1C(F)F (single isomer, unassigned) [Compound 223] come in under 0.06 µM for IC50?
Solution: criterion met

Exercise: Threshold test, IC50 < 0.06 µM: C=CC(=O)N1CCOC[C@H]1c1cc(Cl)cc(-c2nc(N)nc(NCCCN(C)C)n2)c1 (single isomer, unassigned) [Compound 229]
Solution: criterion not met

###

Provide the reported pIC50 of each item.
molecular target: KEAP1 C151 (Homo sapiens, UniProt Q14145); construct: treating 500 μg of cell lysate generated from MDA-MB-468 breast cancer cells with DMSO or compound; endogenous in cells; test: Nrf2 TMT measurement: in vitro TE50 for KEAP1 C151 (IA-DTB competition, targeted TMT mass spectrometry) in MDA-MB-468 cell lysate; conditions: in vitro target engagement of KEAP1 C151, targeted TMT, read-out: KEAP1_C151 TE50
Answers are plain numbers, as −log10 of the molar value.

The examples below pair each entry with its known result.
Exercise: Specify measured pIC50 for C=CC(=O)N1CC(C)(C)OC[C@H]1c1cc(Cl)cc(-c2ccnc(N)n2)c1 (single isomer, unassigned) [Compound 148] .
Solution: 7.29

Exercise: For the compound C=CC(=O)N1CCOC[C@H]1c1cc(Cl)cc(-c2ncc(N)c(OC)n2)c1 (single isomer, unassigned) [Compound 254] , report pIC50.
Solution: 7.07

Here's the next entry for you.
Exercise: Given C=CC(=O)N1CC(C)(C)OC[C@H]1c1cc(Cl)cc(-c2ccnc(C)n2)c1 (single isomer, unassigned) [Compound 48] , respond with its pIC50.
Solution: 7.18

###

molecular target: KEAP1 C151 (Homo sapiens); construct: treating 500 μg of cell lysate generated from MDA-MB-468 breast cancer cells with DMSO or compound; endogenous in cells; host or cells: MDA-MB-468 breast cancer cell lysate; experiment: Nrf2 TMT measurement: in vitro TE50 for KEAP1 C151 (IA-DTB competition, targeted TMT mass spectrometry) in MDA-MB-468 cell lysate; format: binding; conditions: in vitro target engagement of KEAP1 C151, targeted TMT, read-out: KEAP1_C151 TE50
property_measured: pIC50
Numbers only, as −log10 of the molar value.

Answered examples (5):
Exercise: Please report pIC50 for the following compound: C=CC(=O)N1CC(C)(C)OCC1c1cc(Cl)nc(-c2ccn3ccnc3c2)c1 (single isomer, unassigned)
Solution: 7.74

Exercise: Retrieve pIC50 measured for C=CC(=O)N1CCOCC12COc1c(-c3ccccc3)cc(Cl)cc12 (racemic) and print it.
Solution: 5.28

Exercise: Quote pIC50 reported for C=CC(=O)N1CCOCC1c1cc(Cl)cc(C2CCOCC2)c1 (single isomer, unassigned) please.
Solution: 6.89

Exercise: Fill in reported pIC50 for this entry: C=CC(=O)N1CCS(=O)(=O)CC1c1cc(Cl)cc(-c2ccn(C)c(=O)c2)c1 (racemic)
Solution: 6.48

Exercise: Entry C=CC(=O)N1CCOCC1c1cc(Cl)nc(-c2ccnc(C)n2)c1 (single isomer, unassigned) needs its pIC50 filled in; supply it.
Solution: 7.59

Turning to the following compound.
Exercise: Provide one value: measured pIC50 of C=CC(=O)N1CCOC[C@H]1c1cc(Cl)cc(-c2ncc(N)cn2)c1 (single isomer, unassigned)
Solution: 7.64

###

I'd appreciate it if you could supply pIC50 values for the items below.
molecular target: KEAP1 C151 (Homo sapiens, UniProt Q14145); construct: treating 500 μg of cell lysate generated from MDA-MB-468 breast cancer cells with DMSO or compound; endogenous in cells; assay: Nrf2 TMT measurement: in vitro TE50 for KEAP1 C151 (IA-DTB competition, targeted TMT mass spectrometry) in MDA-MB-468 cell lysate; details: in vitro target engagement of KEAP1 C151, targeted TMT, read-out: KEAP1_C151 TE50
One number for each entry, as −log10 of the molar value.

Recorded results for 5 compounds are shown here.
Exercise: Answer with reported pIC50 of C=CC(=O)N1CCS(=O)(=O)CC1c1cc(Cl)cc(-c2ccnc(C)n2)c1 (single isomer, unassigned) [Compound 50]
Solution: 6.24

Exercise: For the compound C=CC(=O)N1CCCOCC1c1cc(Cl)cc(-c2ncnc(N)n2)c1 (racemic) , give its measured pIC50 value.
Solution: 6.22

Exercise: Give the reported pIC50 for this compound. C=CC(=O)N1C[C@@H](C)N(C(C)=O)C[C@@H]1c1cc(Cl)cc(-c2ncc(N)cn2)c1 (single isomer, unassigned) [Compound 236]
Solution: 7.60

Exercise: Please give measured pIC50 of the following entry: C=CC(=O)N1CCOC[C@H]1c1cc(Cl)cc(-c2cc(N)on2)c1 (single isomer, unassigned)
Solution: 7.16

Exercise: Respond only with pIC50 recorded for C=CC(=O)N1CC2(CC2)OCC1c1cc(Cl)nc(-c2cc(N)ncn2)c1 (single isomer, unassigned) [Compound 175]
Solution: 7.49

For every item in the list below, what is its measured pIC50?
1. C=CC(=O)N1CCOC[C@H]1c1cc(Cl)cc(-c2ccc(F)c(C(N)=O)c2)c1 (single isomer, unassigned)
2. C=CC(=O)N1CCOC[C@H]1c1cc(Cl)cc(-c2ccnc(N)c2)c1 (single isomer, unassigned)
3. C=CC(=O)N1CCOCC12COc1c(-c3ccnc(N)n3)cc(Cl)cc12 (single isomer, unassigned)
4. C=CC(=O)N1CCOC[C@H]1c1cc(Cl)cc(-c2cc(C(N)=O)ccn2)c1 (single isomer, unassigned)
5. C=CC(=O)N1CCOCC1c1cc(Cl)cc(-c2cc(C(N)=O)ccc2F)c1 (single isomer, unassigned)
6. C=CC(=O)N1CCN(S(C)(=O)=O)C[C@H]1c1cc(Cl)cc(-c2ncnc(N)n2)c1 (single isomer, unassigned)
7. C=CC(=O)N1CCOC[C@H]1c1cc(Cl)cc(C2CNC(=O)CO2)c1 (single isomer, unassigned) [Compound 232]

Solution:
7.80
7.28
5.57
7.49
7.24
7.89
6.85

Exercise: Consider the compound C=CC(=O)N1CCOC[C@H]1c1cc(Cl)cc(-c2cc(C)ccn2)c1 (single isomer, unassigned) . State its measured pIC50.
Solution: 7.35

###

target: KEAP1 C151 (Homo sapiens, UniProt Q14145); construct: treating 500 μg of cell lysate generated from MDA-MB-468 breast cancer cells with DMSO or compound; endogenous in cells; assay: Nrf2 TMT measurement: in vitro TE50 for KEAP1 C151 (IA-DTB competition, targeted TMT mass spectrometry) in MDA-MB-468 cell lysate; conditions: in vitro target engagement of KEAP1 C151, targeted TMT, read-out: KEAP1_C151 TE50
For each entry below, report its log10 of IC50 value.
All values: log10 IC50 [nM].

Below are worked cases with known answers.
Exercise: Input C=CC(=O)N1CCOCC1c1cc(Cl)cc(-c2ccc(C(N)=O)cc2)c1 (single isomer, unassigned) , output reported log10 of IC50.
Solution: 1.73

Exercise: Determine from records and report log10 of IC50 for C=CC(=O)N1CCOC[C@H]1c1cc(Cl)cc(-c2c[nH]nn2)c1 (single isomer, unassigned)
Solution: 2.98

Exercise: Tell me log10 of IC50 reported for C=CC(=O)N1CCOC[C@H]1c1cc(Cl)cc(-c2cccc(OC)n2)c1 (single isomer, unassigned)
Solution: 2.15

Exercise: Return log10 of IC50 for the following molecule: C=CC(=O)N1CCOCC1c1cc(Cl)cc(-c2ccn3ccnc3c2)c1 (single isomer, unassigned)
Solution: 1.40

Exercise: Assign log10 of IC50 to the following record: C=CC(=O)N1CCS(=O)(=O)CC1c1cc(Cl)cc(C2CCOCC2)c1 (racemic)
Solution: 2.18

Lab note: each molecule below needs its log10 of IC50 filled in.
1. C=CC(=O)N1CCOCC1c1cc(Cl)cc(-c2cccc(C(N)=O)c2F)c1 (single isomer, unassigned)
2. C=CC(=O)N1CCOCC1c1cc(Cl)cc(-c2cccn(C)c2=O)c1 (single isomer, unassigned)

Solution:
1: 1.75; 2: 2.04
